Readings of absorption maximum for the listed molecules
- experiment: solvent given as SMILES
- recorded.conditions: in CO
Express your answer in nm, writing the number without its unit.

[in] # input molecule: `c1csc(-c2cnc(-c3cccs3)c3nonc23)c1` ; wanted: its absorption maximum
[out] 460

Continuing:
[in] // lookup absorption maximum for `CC1(C)CC(/N=C/c2ccc3ccc4cccc5ccc2c3c45)CC(C)(C)N1[O]`
[out] 359

[in] What value of absorption maximum has been recorded for this entry: `CN1/C(=C/C=C(/C=C/C2=[N+](C)c3ccccc3C2(C)C)c2ccc(C(F)(F)F)cc2)C(C)(C)c2ccccc21`
[out] 634

[in] Param item = `CCC1=C(C)C2=C(C)c3cc(I)cn3[B-](F)(F)[N+]2=C1C` ; retrieve measured absorption maximum.
[out] 503.5

[in] Fill blank: measured absorption maximum of the molecule `Cc1ccc2c(c1)nnn2-c1c(C#N)c2c(N)ncnc2n1[C@H]1C[C@H](O)[C@@H](CO)O1` is ____.
[out] 278

[in] // returns reported absorption maximum for input `CCNc1cc2c(cc1C)C(c1ccccc1C(=O)O)=C1CCCC(/C=C/C3=[N+](C)c4ccccc4C3(C)C)=C1O2`
[out] 690

[in] Give the measured absorption maximum of O=P1(c2ccccc2)C(c2cc(C(F)(F)F)cc(C(F)(F)F)c2)=Cc2c3ccc4cccc5ccc(c6cc(-c7ccccc7)n1c26)c3c45 (centres undefined) .
[out] 444

[in] absorption maximum for `CC(C)(C)c1ccc2ccc3c(C(C)(C)C)ccc4ccc1c2c43` ?
[out] 345

[in] Quick one: absorption maximum of `O=C1/C(=C2\Sc3ccc(S(=O)(=O)O)cc3C2=O)Sc2ccc(S(=O)(=O)O)cc21` ?
[out] 553
